The entries below are paired with their reported Inhibition Ratio (%) of fibroblast apoptosis (Caspase Assay).
System: normal diploid fibroblast (PDL22-32 cells)
Experiment: Test 2-2: fibroblast apoptosis caused by CML-collagen (Caspase Assay), extracts and substances
Type: cell-based, human
Conditions: 1 μg/mL
Marks after values point to notes of the source that are not given here.

Record excerpt, results attached:
INSERT INTO assay_data (compound, tgt, endpoint_value) VALUES
  ('O=C(/C=C/c1ccccc1)O[C@@H]1OC(CO)[C@@H](O)C(O)C1O (stereo partly drawn) [1-O-(E)-Cinnamoyl-β-D-glucopyranoside]', 'normal diploid fibroblast (PDL22-32 cells)', '−11.8 ± 0.3%'),
  ('O=C(/C=C/c1ccc(O)c(O)c1)O[C@@H]1OC(CO)[C@@H](O)C(O)C1O (stereo partly drawn) [1-O-(E)-Caffeoyl-β-D-glucopyranoside]', 'normal diploid fibroblast (PDL22-32 cells)', '26.2 ± 0.5* %'),
  ('O=C(O)CC(=O)OCC1O[C@@H](Oc2c(-c3ccc(O)c(O)c3)oc3cc(O)cc(O)c3c2=O)C(O)C(O)[C@@H]1O (stereo partly shown)', 'normal diploid fibroblast (PDL22-32 cells)', '21.8 ± 0.7%');

Per the record, O=c1c(O[C@@H]2O[C@H](CO)[C@@H](O)[C@H](O)[C@H]2O)c(-c2ccc(O)cc2)oc2cc(O)cc(O)c12 [Kaempferol 3-O-β-D-glucopyranoside] has Inhibition Ratio (%) of fibroblast apoptosis (Caspase Assay) of −0.7 ± 0.1%

###

Test system: AGE production
Test: Test 1: AGE production inhibition (D-glucose + bovine serum albumin, fluorescence)
Type: biochemical
Settings: 100 μg/mL
Marks after values point to notes of the source that are not given here.
quantity.measured: Inhibition Ratio (%) of AGE production

Worked cases, Inhibition Ratio (%) of AGE production given:
INSERT INTO results (compound, endpoint_value) VALUES
  ('O=C(O)CC(=O)OCC1O[C@@H](Oc2c(-c3ccc(O)c(O)c3)oc3cc(O)cc(O)c3c2=O)C(O)C(O)[C@@H]1O (some centres unmarked)', '74.6 ± 0.7** %'),
  ('Cl.N=C(N)NN [Aminoguanidine Hydrochloride, aminoguanidine hydrochloride, reference compound]', '42.6 ± 1.7** %'),
  ('O=C(O)CC(=O)OCC1O[C@@H](Oc2c(-c3ccc(O)cc3)oc3cc(O)cc(O)c3c2=O)C(O)C(O)[C@@H]1O (some centres unmarked)', '50.8 ± 0.4** %'),
  ('O=C(/C=C/c1ccc(O)c(O)c1)O[C@@H]1OC(CO)[C@@H](O)C(O)C1O (stereo partly drawn) [1-O-(E)-Caffeoyl-β-D-glucopyranoside]', '25.0 ± 0.3** %'),
  ('O=C(/C=C/c1ccccc1)O[C@@H]1OC(CO)[C@@H](O)C(O)C1O (stereo partly drawn) [1-O-(E)-Cinnamoyl-β-D-glucopyranoside]', '5.7 ± 0.1%'),
  ('O=C(/C=C/c1ccc(O)cc1)O[C@@H]1OC(CO)[C@@H](O)C(O)C1O (stereo partly drawn) [1-O-(E)-Coumaroyl-β-D-glucopyranoside]', '−3.7 ± 0.1** %'),
  ('O=c1c(O[C@@H]2O[C@H](CO)[C@@H](O)[C@H](O)[C@H]2O)c(-c2ccc(O)c(O)c2)oc2cc(O)cc(O)c12 [Quercetin 3-O-β-D-glucopyranoside]', '74.2 ± 1.1** %');

Inhibition Ratio (%) of AGE production measured on O=c1c(O[C@@H]2O[C@H](CO)[C@@H](O)[C@H](O)[C@H]2O)c(-c2ccc(O)cc2)oc2cc(O)cc(O)c12 [Kaempferol 3-O-β-D-glucopyranoside] = 45.0 ± 0.5** %
